# Tested target: T1, IL-18Rβ on KG-1 cells and human PBMC (human, UniProt O95256 20-599)
# T1 sequence (looked up): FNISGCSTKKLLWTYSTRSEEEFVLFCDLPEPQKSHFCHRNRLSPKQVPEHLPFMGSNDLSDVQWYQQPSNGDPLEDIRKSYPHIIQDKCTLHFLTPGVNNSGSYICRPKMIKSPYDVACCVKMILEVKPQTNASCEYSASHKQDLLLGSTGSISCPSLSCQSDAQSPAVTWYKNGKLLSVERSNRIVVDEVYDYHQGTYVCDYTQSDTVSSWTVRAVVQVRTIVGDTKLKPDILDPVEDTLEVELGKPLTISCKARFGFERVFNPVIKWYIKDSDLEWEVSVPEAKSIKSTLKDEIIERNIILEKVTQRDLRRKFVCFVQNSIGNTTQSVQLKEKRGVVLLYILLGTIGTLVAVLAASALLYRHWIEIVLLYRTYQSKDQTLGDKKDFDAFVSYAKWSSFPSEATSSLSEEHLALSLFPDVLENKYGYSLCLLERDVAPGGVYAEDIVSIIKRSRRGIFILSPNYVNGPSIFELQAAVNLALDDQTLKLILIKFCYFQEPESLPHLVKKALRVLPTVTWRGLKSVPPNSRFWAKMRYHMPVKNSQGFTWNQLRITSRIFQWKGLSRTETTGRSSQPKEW
# Assay notes: cell-based or functional assay
Recorded measurements of IC50(nM), inhibition of IL-18-stimulated IFN-γ release in KG-1 cells, one per entry
Supply the numeric figure in nM, leaving out any unit text.

[
  {
    "Binder": "A037 full-length IgG (antibody, V domains shown) VH: EVQLVESGGGLVQPGGSLRLSCAASGLNLYYSSMHWVRQAPGKGLEWVASIYSSNGRTYYADSVKGRFTISADTSKNTAYLQMNSLRAEDTAVYYCARSSFSHGYGWYGLDYWGQGTLVTVSS VL: DIQMTQSPSSLSASVGDRVTITCRASQSVSFAVDWYQQKPGKAPKLLIYSASSLYSGVPSRFSGSRSGTDFTLTISSLQPEDFATYYCQQYGYHDAGLITFGQGTKVEIK",
    "Unit descriptor": "nM",
    "Reported result": 0.27
  }
]

What value of measured IC50(nM), inhibition of IL-18-stimulated IFN-γ release in KG-1 cells is listed for A035 full-length IgG (antibody, V domains shown) VH: EVQLVESGGGLVQPGGSLRLSCAASGINLYYSSMHWVRQAPGKGLEWVASIYSSNGRTYYADSVKGRFTISADTSKNTAYLQMNSLRAEDTAVYYCARASFSHGYGWYGLDYWGQGTLVTVSS VL: DIQMTQSPSSLSASVGDRVTITCRASQSVSFAVEWYQQKPGKAPKLLIYSASSLYSGVPSRFSGSRSGTDFTLTISSLQPEDFATYYCQQYGYHDAGLITFGQGTKVEIK ?
0.26

Another: C056-WT full-length antibody (parental antibody WT) (antibody, V domains shown) VH: EVQLVESGGGLVQPGGSLRLSCAASGFNLYYSSMHWVRQAPGKGLEWVASIYSSNGRTYYADSVKGRFTISADTSKNTAYLQMNSLRAEDTAVYYCARSSFSHGYGWYGLDYWGQGTLVTVSS VL: DIQMTQSPSSLSASVGDRVTITCRASQSVSSAVAWYQQKPGKAPKLLIYSASSLYSGVPSRFSGSRSGTDFTLTISSLQPEDFATYYCQQYGYHDAGLITFGQGTKVEIK
8.14

Another: A039 full-length IgG (antibody, V domains shown) VH: EVQLVESGGGLVQPGGSLRLSCAASGINLYYSSMHWVRQAPGKGLEWVASIYSSNGRTYYADSVKGRFTISADTSKNTAYLQMNSLRAEDTAVYYCARSSFSHGYGWYGLDYWGQGTLVTVSS VL: DIQMTQSPSSLSASVGDRVTITCRASQSVSSAVDWYQQKPGKAPKLLIYSASSLYSGVPSRFSGSRSGTDFTLTISSLQPEDFATYYCQQYGYHDAGLITFGQGTKVEIK
0.59
